Origin of values: patent US9682960B2

A collection of compounds and their measured Human Androgen Receptor Binding RBA (%) R1881 = 100
Molecular target: Human Androgen Receptor (Homo sapiens (Human))
Sequence (P10275 whole entry): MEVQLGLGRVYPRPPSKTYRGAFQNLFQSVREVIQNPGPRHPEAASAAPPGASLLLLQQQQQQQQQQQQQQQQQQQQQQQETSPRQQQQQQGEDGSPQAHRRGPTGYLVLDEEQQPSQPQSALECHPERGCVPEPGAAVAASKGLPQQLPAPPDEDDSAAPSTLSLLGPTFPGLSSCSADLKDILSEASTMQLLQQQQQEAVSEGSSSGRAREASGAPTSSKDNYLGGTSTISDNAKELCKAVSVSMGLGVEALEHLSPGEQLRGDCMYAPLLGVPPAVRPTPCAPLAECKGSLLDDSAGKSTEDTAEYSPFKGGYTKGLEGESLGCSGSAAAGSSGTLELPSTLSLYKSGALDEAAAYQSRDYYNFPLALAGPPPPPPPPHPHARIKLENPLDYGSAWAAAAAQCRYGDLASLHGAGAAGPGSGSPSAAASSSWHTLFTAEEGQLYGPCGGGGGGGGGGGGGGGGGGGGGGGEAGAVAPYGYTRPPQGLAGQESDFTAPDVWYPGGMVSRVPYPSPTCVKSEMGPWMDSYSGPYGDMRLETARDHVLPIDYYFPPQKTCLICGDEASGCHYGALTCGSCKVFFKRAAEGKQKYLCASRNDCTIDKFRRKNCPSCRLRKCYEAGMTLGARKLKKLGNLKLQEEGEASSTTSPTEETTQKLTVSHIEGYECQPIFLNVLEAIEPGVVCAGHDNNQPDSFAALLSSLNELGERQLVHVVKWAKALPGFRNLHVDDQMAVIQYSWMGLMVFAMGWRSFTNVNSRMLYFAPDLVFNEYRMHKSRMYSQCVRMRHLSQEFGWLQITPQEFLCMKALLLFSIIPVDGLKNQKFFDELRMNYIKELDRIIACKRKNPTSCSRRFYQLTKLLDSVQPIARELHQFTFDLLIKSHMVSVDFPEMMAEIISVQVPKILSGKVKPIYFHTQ
Assay: Androgen receptor assay: [3H]R1881 displacement, cytosol of HEK-293 cells transfected with hAR (hydroxylapatite assay)
Assay type: binding
Conditions: relative binding affinity, R1881 = 100; transfected cells
Supply the numeric figure in %, leaving out any unit text.

The following compounds have reported results that may help.
- compound: "Cc1c(N2C(=O)C(C)(C)N(CCCOc3ccc(-c4ccncc4)c(C(F)(F)F)c3)C2=S)ccc(C#N)c1Cl [EM-8820]"
  measured.value: 263
- compound: "CC1(C)C(=O)N(c2ccc(C#N)c(F)c2)C(=S)N1CCCOc1ccc(-c2ccncc2)cc1 [EM-9025]"
  measured.value: 39
- compound: "Cc1c(N2C(=O)N(CCCOc3ccc(-c4ccncc4)cc3F)C(C)(C)C2=O)ccc(C#N)c1F [EM-9204]"
  measured.value: 22

Next compound, please.
Qu. Human Androgen Receptor Binding RBA (%) R1881 = 100 for Cc1c(N2C(=O)C(C)(C)N(CCCOc3ccc(-c4ccc(N(C)C)nc4)c(F)c3)C2=S)ccc(C#N)c1Cl [EM-8996] ?
Ans. 48.9

###

Experiment: Oral absorption, Experiment 2: plasma, intraprostatic and intramuscular concentrations after 0.5 mg EM-9150/animal in castrated male rats
Assay type: in vivo
Conditions: Sprague-Dawley, rat, ventral prostate, po, 0.5 mg/animal, read-out: intraprostatic concentration
test.readout: concentration at 7 h

- smiles.notation: "CC1(C)C(=O)N(c2ccc(C#N)c(Cl)c2)C(=O)N1CCCOc1ccc(-c2ccncc2)cc1Cl"
  concentration at 7 h: "2.9 ng/g"

For the next question, use this compound.
Qu. concentration at 7 h for `CC1(C)C(=O)N(c2ccc(C#N)c(Cl)c2)C(=O)N1CCCOc1ccc(-c2cc[n+]([O-])cc2)cc1Cl` ?
Ans. 19.3 ng/g

###

System: castrated (CX) immature male rats
Assay: Systemic androgenic (agonistic) activity in orchidectomized (CX) immature male rats
Format: in vivo, rat
Conditions: 0.1 mg/rat/po, 7 days, seminal vesicles weight
Below, each entry is listed alongside its reported CX Agonistic activity % Stimulation SV.
Return type: number; implicit unit %.

Consider the reported CX Agonistic activity % Stimulation SV for these compounds:
- smiles.notation: "Cc1ccc2cc(OCCCN3C(=O)N(c4ccc(C#N)c(C(F)(F)F)c4)C(=O)C3(C)C)ccc2n1"
  CX Agonistic activity % Stimulation SV (%): 0
- smiles.notation: "Cc1c(N2C(=O)C(C)(C)N(CCCOc3ccc(-c4ccncc4)nc3)C2=S)ccc(C#N)c1Cl"
  CX Agonistic activity % Stimulation SV (%): 38
- smiles.notation: "CC1(C)C(=O)N(c2ccc(C#N)c(C(F)(F)F)c2)C(=S)N1CCCOc1ccc2cnccc2c1"
  CX Agonistic activity % Stimulation SV (%): 0
- smiles.notation: "CC1(C)C(=O)N(c2ccc(C#N)c(C(F)(F)F)c2)C(=S)N1CCCOc1ccc2c(ccc[n+]2[O-])c1"
  CX Agonistic activity % Stimulation SV (%): 2
- smiles.notation: "Cc1c(N2C(=O)C(C)(C)N(CCCOc3ccc4cccnc4c3)C2=S)ccc(C#N)c1Cl"
  CX Agonistic activity % Stimulation SV (%): 73
- smiles.notation: "Cc1c(N2C(=O)C(C)(C)N(CCCOc3ccc(-c4ccncc4)cc3)C2=S)ccc(C#N)c1Cl"
  CX Agonistic activity % Stimulation SV (%): 66

Kindly review the next compound as well.
Qu. Which CX Agonistic activity % Stimulation SV is reported for this compound? `CC1(C)NC(=O)N(c2ccc(C#N)c(Cl)c2)C1=O`
Ans. 2
